Source listed as patent US7304174B2.

The following compounds are shown together with reported log10 IC50 values.
Biological target: human calcium receptor (Homo sapiens)
Assay: Evaluation of antagonistic action on calcium receptor using reporter gene (luciferase)
Details: transformed rat adrenal derived cells, 5 mM calcium chloride, culture 4 hrs, luciferase activity; read-out: Reporter gene assay (IC50, concentration showing 50% inhibitory rate)
Procedure: Evaluation of Antagonistic Action on Calcium Receptor Using Reporter Gene Luciferase cDNA and human calcium receptor cDNA were introduced into a cell strain derived from rat adrenal to transform the cells, and the transformed cells were cultured in a medium (80 μl, F12 medium containing 0.5% dialyzed horse serum and 0.25% dialyzed bovine fetal serum). […] After culture for 4 hrs, luciferase substrate was added and the luciferase activity was measured with a photoluminometer. […]
Parameter value (number): base-10 log of IC50 in nM.

- compound: "CCc1cc(-c2ccccc2[C@@H](C)OC[C@H](O)CNC(C)(C)Cc2ccc(C)c(F)c2)ccc1C(=O)O"
  measuredAttribute: "log10 IC50"
  dataValue: 0.70
- compound: "CCc1cc(-c2ccccc2[C@@H](C)OC[C@H](O)CNC(C)(C)Cc2ccc(Cl)c(F)c2)ccc1C(=O)O"
  measuredAttribute: "log10 IC50"
  dataValue: 0.60

Prompt: I have this compound here, `COC(=O)c1cc(C(=O)OC)cc(-c2ccccc2[C@@H](C)OC[C@H](O)CNC(C)(C)Cc2ccc3ccccc3c2)c1` , and I need its recorded log10 IC50.
Response: 1.46

Prompt: I have this compound here, Cc1cc(-c2ccccc2C(OC[C@H](O)CNC(C)(C)Cc2ccc(Cl)cc2F)C2CC2)ccc1C(=O)O (stereo partly shown) , and I need its recorded log10 IC50.
Response: 1.20

Prompt: I have this compound here, `COc1cc(CC(C)(C)NC[C@@H](O)CO[C@H](C)c2ccccc2-c2ccc(C(=O)O)c(C)c2)ccc1C` , and I need its recorded log10 IC50.
Response: 0.85

Prompt: I have this compound here, `C[C@@H](OC[C@H](O)CNC(C)(C)Cc1ccc2ccccc2c1)c1ccccc1Cc1ccc(C(=O)O)cc1` , and I need its recorded log10 IC50.
Response: 1.72

Prompt: I have this compound here, `Cc1ccc(CC(C)(C)NC[C@@H](O)CO[C@H](C)c2ccccc2Oc2ccc(C(=O)O)cc2Cl)cc1F` , and I need its recorded log10 IC50.
Response: 0.48

###

target: human calcium receptor (Homo sapiens); assay: Evaluation of antagonistic action on calcium receptor using reporter gene (luciferase); settings: transformed rat adrenal derived cells, 5 mM calcium chloride, culture 4 hrs, luciferase activity; read-out: Reporter gene assay (IC50, concentration showing 50% inhibitory rate)
The following molecules are shown together with reported pIC50 values.
Note on units: pIC50 is unitless, being -log10 of a concentration expressed in mol/L.

- structureSmiles: "COc1cc(-c2ccccc2[C@@H](C)OC[C@H](O)CNC(C)(C)Cc2ccc3ccccc3c2)ccc1C(=O)O"
  targetOfAssay: "human calcium receptor (Homo sapiens)"
  pIC50: 7.85
- structureSmiles: "Cc1ccc(CC(C)(C)NC[C@@H](O)CO[C@H](C)c2ccccc2Oc2ccc(C(=O)O)c(Cl)c2)cc1F"
  targetOfAssay: "human calcium receptor (Homo sapiens)"
  pIC50: 7.80
- structureSmiles: "C[C@@H](OC[C@H](O)CNC(C)(C)Cc1ccc(Cl)c(F)c1)c1ccccc1-c1ccc(C(=O)O)c(C(=O)O)c1"
  targetOfAssay: "human calcium receptor (Homo sapiens)"
  pIC50: 6.70

Continue with the molecule presented below.
Prompt: I have this molecule here, `Cc1ccc(CC(C)(C)NC[C@@H](O)CO[C@@H](c2ccccc2-c2ccc(C(=O)O)c(C)c2)C2CC2)cc1F` , and I need its recorded pIC50.
Response: 8.22

###

Biological target: human calcium receptor (Homo sapiens)
Assay: Evaluation of antagonistic action on calcium receptor using reporter gene (luciferase)
Details: transformed rat adrenal derived cells, 5 mM calcium chloride, culture 4 hrs, luciferase activity; read-out: Reporter gene assay (IC50, concentration showing 50% inhibitory rate)
Method: Evaluation of Antagonistic Action on Calcium Receptor Using Reporter Gene Luciferase cDNA and human calcium receptor cDNA were introduced into a cell strain derived from rat adrenal to transform the cells, and the transformed cells were cultured in a medium (80 μl, F12 medium containing 0.5% dialyzed horse serum and 0.25% dialyzed bovine fetal serum). […] After culture for 4 hrs, luciferase substrate was added and the luciferase activity was measured with a photoluminometer. […]
measuredAttribute: IC50 (µM)
The figure you give is taken to be in µM; do not add the unit.

Examples with their reported IC50 follow.
- compound: "Cc1ccc(CC(C)(C)NC[C@@H](O)CO[C@H](C)c2ccccc2OCc2ccc(C(=O)O)cc2F)cc1F"
  readoutUnits: "µM"
  IC50: 0.065
- compound: "Cc1ccc(CC(C)(C)NC[C@@H](O)CO[C@H](C)c2ccccc2-c2ccc(C(=O)O)c(Cl)n2)cc1F"
  readoutUnits: "µM"
  IC50: 0.012
- compound: "CC(=O)Nc1cc(-c2ccccc2[C@@H](C)OC[C@H](O)CNC(C)(C)Cc2ccc3ccccc3c2)ccc1C(=O)O"
  readoutUnits: "µM"
  IC50: 0.005
- compound: "Cc1cc(C(=O)O)ccc1-c1ccccc1[C@@H](C)OC[C@H](O)CNC(C)(C)Cc1ccc(Cl)cc1F"
  readoutUnits: "µM"
  IC50: 0.022
- compound: "CC(OC[C@H](O)CNC(C)(C)Cc1ccc2ccccc2c1)c1ccccc1OCc1ccccc1C(=O)O (stereo partly shown) [Example 2-20]"
  readoutUnits: "µM"
  IC50: 0.02

Prompt: I have this compound here, `Cc1ccc(CC(C)(C)NC[C@@H](O)CO[C@H](C)c2ccccc2-c2ccc(C(=O)O)c(Cc3ccccc3)c2)cc1F` , and I need its recorded IC50.
Response: 0.004

Prompt: I have this compound here, `COc1cc(CC(C)(C)NC[C@@H](O)CO[C@H](C)c2ccccc2-c2ccc(C(=O)O)c(C)c2)ccc1Cl` , and I need its recorded IC50.
Response: 0.016

Prompt: I have this compound here, `C[C@@H](OC[C@H](O)CNC(C)(C)Cc1ccc2ccccc2c1)c1ccccc1-c1ccc(C(=O)O)c(N)c1` , and I need its recorded IC50.
Response: 0.005

###

Target: human calcium receptor (Homo sapiens, UniProt P41180)
Sequence (P41180 20-1078): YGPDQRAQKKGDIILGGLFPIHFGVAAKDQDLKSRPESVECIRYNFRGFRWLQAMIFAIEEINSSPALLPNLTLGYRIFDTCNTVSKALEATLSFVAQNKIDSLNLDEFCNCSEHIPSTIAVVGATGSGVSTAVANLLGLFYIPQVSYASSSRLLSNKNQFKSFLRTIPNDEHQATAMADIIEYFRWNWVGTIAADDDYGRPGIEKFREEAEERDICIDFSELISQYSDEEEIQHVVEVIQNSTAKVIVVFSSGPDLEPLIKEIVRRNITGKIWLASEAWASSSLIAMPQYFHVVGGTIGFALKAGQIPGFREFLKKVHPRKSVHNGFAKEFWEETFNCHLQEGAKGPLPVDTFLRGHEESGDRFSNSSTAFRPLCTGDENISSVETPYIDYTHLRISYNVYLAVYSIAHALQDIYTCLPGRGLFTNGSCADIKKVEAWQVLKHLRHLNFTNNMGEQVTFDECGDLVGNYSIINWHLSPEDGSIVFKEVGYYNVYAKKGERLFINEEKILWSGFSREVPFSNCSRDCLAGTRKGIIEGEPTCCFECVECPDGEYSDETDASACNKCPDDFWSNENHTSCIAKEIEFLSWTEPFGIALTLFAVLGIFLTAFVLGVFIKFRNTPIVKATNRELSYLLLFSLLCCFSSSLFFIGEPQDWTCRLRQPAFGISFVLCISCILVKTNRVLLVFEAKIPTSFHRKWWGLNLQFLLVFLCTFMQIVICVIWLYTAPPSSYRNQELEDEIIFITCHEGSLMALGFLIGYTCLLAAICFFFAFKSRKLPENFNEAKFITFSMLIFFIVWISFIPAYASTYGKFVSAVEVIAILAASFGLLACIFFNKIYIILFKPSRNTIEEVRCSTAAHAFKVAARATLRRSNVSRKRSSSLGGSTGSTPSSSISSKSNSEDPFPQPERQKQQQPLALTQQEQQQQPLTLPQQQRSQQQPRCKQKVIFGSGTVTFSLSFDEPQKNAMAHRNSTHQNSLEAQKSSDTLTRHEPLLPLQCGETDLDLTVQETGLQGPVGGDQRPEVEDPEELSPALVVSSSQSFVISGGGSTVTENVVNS
Experiment: Evaluation of antagonistic action on calcium receptor using reporter gene (luciferase)
Conditions: transformed rat adrenal derived cells, 5 mM calcium chloride, culture 4 hrs, luciferase activity; read-out: Reporter gene assay (IC50, concentration showing 50% inhibitory rate)
pIC50: −log10 of the molar value.
Decide by pIC50: equal to or exceeding 8 means fulfilled, less means not fulfilled.

- compound: "Cc1cc(-c2ccccc2[C@@H](C)OC[C@H](O)CNC(C)(C)Cc2ccc(Cl)cc2F)ccc1C(=O)O [Example 1-6]"
  targetOfAssay: "human calcium receptor (Homo sapiens, UniProt P41180)"
  label: "not fulfilled"
- compound: "Cc1ccc(CC(C)(C)NC[C@@H](O)CO[C@H](C)c2ccccc2Oc2ccc(C(=O)O)cc2[N+](=O)[O-])cc1F"
  targetOfAssay: "human calcium receptor (Homo sapiens, UniProt P41180)"
  label: "fulfilled"
- compound: "Cc1ccc(CC(C)(C)NC[C@@H](O)CO[C@H](C)c2ccccc2-c2ccc(C(=O)O)c(O)c2)cc1F"
  targetOfAssay: "human calcium receptor (Homo sapiens, UniProt P41180)"
  label: "fulfilled"

Prompt: Check if pIC50 >= 8 (inclusive). Item: `Cc1ccc(CC(C)(C)NC[C@@H](O)CO[C@H](C)c2ccccc2-c2ccc(C(=O)O)c(C(C)C)c2)cc1F`
Response: fulfilled

Prompt: Check if pIC50 >= 8 (inclusive). Item: CC(OC[C@H](O)CNC(C)(C)Cc1ccc2ccccc2c1)c1ccccc1NCc1ccc(C(=O)O)cc1 (stereo partly shown)
Response: not fulfilled
